- measuredOn: BCLXL (Homo sapiens, UniProt Q07817, V10N/V9A)
- Sequence (Q07817 with tags, fused parts or gaps V9A/V10N): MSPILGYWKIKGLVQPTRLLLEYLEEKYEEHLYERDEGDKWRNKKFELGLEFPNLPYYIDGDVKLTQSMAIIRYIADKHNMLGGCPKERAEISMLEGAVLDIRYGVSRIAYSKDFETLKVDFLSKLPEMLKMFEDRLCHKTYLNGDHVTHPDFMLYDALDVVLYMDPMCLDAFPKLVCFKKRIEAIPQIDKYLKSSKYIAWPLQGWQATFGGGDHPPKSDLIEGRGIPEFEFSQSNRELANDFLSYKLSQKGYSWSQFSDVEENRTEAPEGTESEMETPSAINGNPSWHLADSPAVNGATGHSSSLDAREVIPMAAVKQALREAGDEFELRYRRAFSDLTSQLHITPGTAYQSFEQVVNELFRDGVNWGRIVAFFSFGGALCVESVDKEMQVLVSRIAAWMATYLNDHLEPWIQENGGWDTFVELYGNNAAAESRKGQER
- experimentSummary: Fluorescence polarisation assay (PUMA-based probe displacement); further: 20 nM protein, 10 nM fluorescent probe
- Procedure: Fluorescence polarization measures the rotation of a fluorescing species in solution, the larger the molecule the more polarized the fluorescence emission. [[…]] […] An 11-point serial dilution of each compound was prepared in DMSO, the final buffer conditions were 10 mM 4-(2-hydroxyethyl)-1-piperazineethanesulfonic acid [HEPES], 150 mM NaCl, 0.05% Tween 20, pH 7.4 and 5% DMSO. […] The KI values were determined from the IC50 values according to Cer et al, Nucleic Acids Res, 2009, Jul. […]
Measured pKi values are reported for all entries that follow.
Lab note: report pKi as minus log10 of the concentration in molar units, number only.

{"compound": "COC(CO)CCN(c1cc(C)c(Nc2nc3ccccc3s2)nn1)c1nc(C(=O)O)cs1 (stereo not shown) [Example 98]", "pKi": 8.64}
{"compound": "COCCCc1sc(N(C)c2cc(C)c(Nc3nc4ccccc4s3)nn2)nc1C(=O)O [Example 60]", "pKi": 8.82}
{"compound": "Cc1cc(N(C)c2nc(C(=O)O)c(CCCOc3ccc(C#CCN(C)C)cc3F)s2)nnc1Nc1nc2ccccc2s1 [Example 50]", "pKi": 8.92}

Pending compound:
// query pKi value for entry CCCN(c1cc(C)c(Nc2nc3ccccc3s2)nn1)c1nc(C(=O)O)cs1 [Example 45]
7.85

----------
Measured IC50 values are reported for all entries that follow.
- Test system: MOLT-4 cells
- experimentSummary: MOLT-4 cell viability, MTT assay
- Type: cell-based
- conditionInfo: Homo sapiens, MOLT-4, 48 h, 48 h exposure

{"compound": "COCCN(c1cc(C)c(Nc2nc3ccccc3s2)nn1)c1nc(C(=O)O)cs1 [Example 39]", "IC50": "> 15 µM"}
{"compound": "Cc1cc(N(C)c2ccc(C(=O)O)s2)nnc1Nc1nc2ccccc2s1 [Example 56]", "IC50": "> 15 µM"}

// query IC50 value for entry Cc1cc(N(C)c2nc(C(=O)O)c(C3CCN(S(=O)(=O)c4ccccc4)CC3)s2)nnc1Nc1nc2ccccc2s1 [Example 92]
> 15 µM

----------
Measured Ki values are reported for all entries that follow.
- measuredOn: BCLXL (Homo sapiens, UniProt Q07817, V10N/V9A)
- experimentSummary: Fluorescence polarisation assay (PUMA-based probe displacement); further: 20 nM protein, 10 nM fluorescent probe
- Protocol: Fluorescence polarization measures the rotation of a fluorescing species in solution, the larger the molecule the more polarized the fluorescence emission. [[…]] […] An 11-point serial dilution of each compound was prepared in DMSO, the final buffer conditions were 10 mM 4-(2-hydroxyethyl)-1-piperazineethanesulfonic acid [HEPES], 150 mM NaCl, 0.05% Tween 20, pH 7.4 and 5% DMSO. […] The KI values were determined from the IC50 values according to Cer et al, Nucleic Acids Res, 2009, Jul. […]

// query Ki value for entry CNCC#Cc1ccc(OCCCc2sc(N(CCCC(O)CO)c3cc(C)c(Nc4nc5ccccc5s4)nn3)nc2C(=O)O)c(F)c1 (stereo not shown) [Example 119]
< 1 nM

// query Ki value for entry C/C(=C\c1sc(N(C)c2cc(C)c(Nc3nc4ccccc4s3)nn2)nc1C(=O)O)COc1ccc(C#CCN(C)C)cc1F [Example 163]
< 1 nM

// query Ki value for entry Cc1cc(N(CCCCO)c2nc(C(=O)O)c(CCCOc3ccc(C#CCN(C)CCCS(=O)(=O)O)cc3F)s2)nnc1Nc1nc2ccccc2s1 [Example 151]
< 1 nM

// query Ki value for entry CNCC#Cc1ccc(OCCCc2sc(N(CCCO)c3cc(C)c(Nc4nc5ccccc5s4)nn3)nc2C(=O)O)c(F)c1 [Example 127]
< 1 nM

----------
Measured pKi values are reported for all entries that follow.
- measuredOn: BCLXL (Homo sapiens, UniProt Q07817, V10N/V9A)
- experimentSummary: Fluorescence polarisation assay (PUMA-based probe displacement); further: 20 nM protein, 10 nM fluorescent probe
pKi: −log10 of the molar value.

Examples with answers:
{"structureSmiles": "Cc1cc(N(C)c2nc(C(=O)O)c(N3CC[C@@H](OCc4ccccc4)C3)s2)nnc1Nc1nc2ccccc2s1", "pKi": "< 5.00"}
{"structureSmiles": "CNCC#Cc1ccc(OCCCc2sc(N(C)c3cc(C)c(Nc4nc5ccccc5s4)nn3)nc2C(=O)O)c(F)c1", "pKi": "> 9.00"}
{"structureSmiles": "Cc1cc(N(C)c2nc(C(=O)O)c(CCCOc3ccccc3)s2)nnc1Nc1nc2ccccc2s1", "pKi": "> 9.00"}

Pending compound:
// query pKi value for entry COCCCN(c1cc(C)c(Nc2nc3ccccc3s2)nn1)c1nc(C(=O)O)c(CCCOc2ccccc2F)s1
> 9.00

----------
- measuredOn: BCLXL (Homo sapiens, UniProt Q07817, V10N/V9A)
- experimentSummary: AlphaLISA assay (BIM peptide displacement)
- conditionInfo: 20 pM protein, 1 nM peptide
Measured log10(IC50) values are reported for all entries that follow.
Short version: log10 scale, IC50, nM.

{"molecule": "COCC(O)CCN(c1cc(C)c(Nc2nc3ccccc3s2)nn1)c1nc(C(=O)O)cs1 (centres unmarked) [Example 93]", "measuredOn": "BCLXL (Homo sapiens, UniProt Q07817, V10N/V9A)", "log10(IC50)": 0.81}

// query log10(IC50) value for entry Cc1cc(N(C)c2nc(C(=O)O)c(CCCOc3ccc(C#CCO)cc3F)s2)nnc1Nc1nc2ccccc2s1 [Example 100]
-1.49

// query log10(IC50) value for entry Cc1cc(N(CCCC(O)CN(C)CCN(C)C)c2nc(C(=O)O)c(CCCOc3ccc(C#CCN(C)C)cc3F)s2)nnc1Nc1nc2ccccc2s1 (centres unmarked) [Example 124]
-2.12

// query log10(IC50) value for entry Cc1cc(N(CCC(O)CO)c2nc(C(=O)O)cs2)nnc1Nc1nc2ccccc2s1 (centres unmarked) [Example 85]
1.08

// query log10(IC50) value for entry Cc1cc(N(CCCCO)c2nc(C(=O)O)c(CCCOc3ccc(C#CC[N+](C)(C)CCCS(=O)(=O)[O-])cc3F)s2)nnc1Nc1nc2ccccc2s1 [Example 130]
-2.27

// query log10(IC50) value for entry CNCC#Cc1ccc(OCCCc2sc(N(CC(O)CO)c3cc(C)c(Nc4nc5ccccc5s4)nn3)nc2C(=O)O)c(F)c1 (centres unmarked) [Example 117]
-2.00

// query log10(IC50) value for entry CNCC#Cc1ccc(OCCCc2sc(N(CCC(O)CO)c3cc(C)c(Nc4nc5ccccc5s4)nn3)nc2C(=O)O)c(F)c1 (centres unmarked) [Example 108]
-2.18

----------
- System: H146 cells
- experimentSummary: H146 cell viability, MTT assay
- Type: cell-based
- conditionInfo: Homo sapiens, NCI-H146, 48 h, 48 h exposure
quantity: IC50

// query IC50 value for entry Cc1c(Nc2nc3ccccc3s2)nnc(Nc2nc(C(=O)O)cs2)c1C1CC1 [Example 19]
≥ 12.8 µM

----------
Measured IC50 values are reported for all entries that follow.
- Tested on: H146 cells
- experimentSummary: H146 cell viability, MTT assay
- Format: cell-based
- conditionInfo: Homo sapiens, NCI-H146, 48 h, 48 h exposure

Examples with answers:
{"molecule": "CCN(CC)CCCN(c1cc(C)c(Nc2nc3ccccc3s2)nn1)c1nc(C(=O)O)cs1", "IC50": "> 15 µM"}
{"molecule": "COC(CO)CCN(c1cc(C)c(Nc2nc3ccccc3s2)nn1)c1nc(C(=O)O)cs1 (stereo not drawn)", "IC50": "> 15 µM"}

// query IC50 value for entry Cc1cc(N(C)c2nc(C(=O)O)c(CCCOc3ccc(C#CC(C)N(C)C)cc3F)s2)nnc1Nc1nc2ccccc2s1 (stereo not drawn)
≤ 0.00593 µM

----------
- measuredOn: BCLXL (Homo sapiens, UniProt Q07817, V10N/V9A)
- experimentSummary: AlphaLISA assay (BIM peptide displacement)
- Format: binding
- conditionInfo: 20 pM protein, 1 nM peptide
Measured pIC50 values are reported for all entries that follow.
Lab note: report pIC50 as minus log10 of the concentration in molar units, number only.

// query pIC50 value for entry CNCC#Cc1ccc(OCCCc2sc(N(CCCC(O)C[N+](C)(C)CCCS(=O)(=O)[O-])c3cc(C)c(Nc4nc5ccccc5s4)nn3)nc2C(=O)O)c(F)c1 (stereo not shown)
10.66

// query pIC50 value for entry Cc1cc(N(C)c2nc(C(=O)O)c(CC3(COc4ccc(C#CCN(C)C)cc4F)CC3)s2)nnc1Nc1nc2ccccc2s1
10.62

// query pIC50 value for entry COCCCN(c1cc(C)c(Nc2nc3ccccc3s2)nn1)c1nc(C(=O)O)c(CCCOc2ccc(C#CCN(C)C)cc2F)s1
10.60

// query pIC50 value for entry Cc1cc(N(C)c2nc(C(=O)O)c(C[C@H](C)COc3ccc(C#CCN(C)C)cc3F)s2)nnc1Nc1nc2ccccc2s1
10.49
